Let's look at some binders and their measured pEC50.
Biological target: T1, cynomolgus monkey CD73 (on transfected CHOK1 cells) (cynomolgus monkey, UniProt A0A2K5V5U7 27-549)
T1 construct: whole, on cells; also called CHOK1-cCD73; CHOK1-CCD73
T1 sequence: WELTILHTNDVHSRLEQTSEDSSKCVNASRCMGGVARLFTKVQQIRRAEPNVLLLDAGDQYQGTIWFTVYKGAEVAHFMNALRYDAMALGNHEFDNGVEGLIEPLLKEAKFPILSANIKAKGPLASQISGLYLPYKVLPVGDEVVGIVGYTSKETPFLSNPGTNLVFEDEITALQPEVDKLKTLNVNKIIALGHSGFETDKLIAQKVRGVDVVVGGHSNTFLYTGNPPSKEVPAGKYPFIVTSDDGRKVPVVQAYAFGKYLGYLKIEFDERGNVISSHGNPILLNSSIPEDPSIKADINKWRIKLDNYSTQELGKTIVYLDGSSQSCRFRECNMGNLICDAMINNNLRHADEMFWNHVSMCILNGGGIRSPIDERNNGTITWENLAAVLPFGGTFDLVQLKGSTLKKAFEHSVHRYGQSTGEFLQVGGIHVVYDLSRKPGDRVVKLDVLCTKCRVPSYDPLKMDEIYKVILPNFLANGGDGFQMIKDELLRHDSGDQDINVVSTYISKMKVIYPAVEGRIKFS
Assay: FACS on CHOK1-cCD73 cells
Reminder that pEC50 means the negative base-10 logarithm of the concentration expressed in mol/L.

For the binder mAb034 (clone 60G1C8), murine anti-CD73 antibody (antibody, V domains shown, Purified from hybridoma supernatant) VH: DVQLQESGPGLVKPSQSLSLTCSVTGYSITSRYYWNWIRQFPGNKLEWMGYMTYDGTNNYNPSLTNRISITRDTSKNQFFLKLNSVTAEDTATYFCARGGWDPFDYWGQGTTLTVSS VL: DIQMTQSPAALSASVGETVTITCRASDNIYSYLAWYQQKQGKCPQLLVKNAKTLAEGVPSRFSGSGSGTQFSLRINSLQPDDFGTYYCQHYYGTPLTFGAGTKLELK , what pEC50 is on record?
9.70

For the binder mAb044 (clone 80H7D6), murine anti-CD73 antibody (antibody, V domains shown, Purified from hybridoma supernatant) VH: EVKLVESGGGLVQPGGSLRLSCAASGFTFTDYYMSWVRQPPGKALEWLGFIRNKADGSTTEYSASVKGRFTISRDNSQSILYLQMNALRPEDSATYYCTRSPIYFDNWYFDVWGTGTTVTVSS VL: DIVMSQSPSSLAVSVGEKVTMTCKSSQSLLYSNNQKNYLAWYQQKPGQSPKLLIYWASTRESGVPDRFTGSGSGTDFTLTLSSVKAEDLAVYYCQQYYSYPFTFGSGTKLEIK , what pEC50 is on record?
8.47

Query binder follows.
For the binder mAb065 (clone 125A4E10), murine anti-CD73 antibody (antibody, V domains shown, Purified from hybridoma supernatant) VH: EVQLQQSGPELVKPGASVKISCKASGYTFTDYYMNWVKQSHGKSLEWIGNINPNNGDTNYNQKFKGKATLTVDKSSSTASMELRSLTSEDSAVYYCANSGYYYFDYWGQGTTLTVSS VL: DIVMTQSPSSLTVTAGEKVTMSCKSSQSLLNSGNQKNYLTWYQQKPGQPPKVLIYWASTRESGVPDRFTGSGSGTDFTLTISSVQAEDLAVYYCQNDYSYPPTFGGGTNLEIK , what pEC50 is on record?
8.60
